# subject_of_test: Wee1 kinase domain (Homo sapiens, UniProt P30291)
# Construct: Wee1 kinase domain was purchased from Carna (catalog #05-177); purchased Carna 05-177
# Sequence (P30291 299-569 limits assumed): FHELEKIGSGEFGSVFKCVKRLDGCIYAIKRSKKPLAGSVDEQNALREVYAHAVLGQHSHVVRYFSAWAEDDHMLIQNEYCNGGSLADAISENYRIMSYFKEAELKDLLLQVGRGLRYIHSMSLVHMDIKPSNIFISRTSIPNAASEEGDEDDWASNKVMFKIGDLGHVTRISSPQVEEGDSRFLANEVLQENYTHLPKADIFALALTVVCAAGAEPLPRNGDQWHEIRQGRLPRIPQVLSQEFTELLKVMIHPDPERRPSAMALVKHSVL
# test_description: Wee1 Kinase Biochemical Assay (ADP-Glo)
# reported_conditions: Wee1 kinase domain, 15 uM ATP, ADP-Glo
# Procedure: Wee1 Kinase Biochemical Assay Protocol Wee1 kinase domain was purchased from Carna (catalog #05-177). Wee1 kinase activity was determined with Poly(Lys,Tyr 4:1) hydrobromide as a substrate (Sigma-Aldrich) and by measuring ADP production using the ADP-Glo Kinase Assay kit (Promega) following the manufacturer's instructions. […] The ADP-Glo signal was measured using the Envision plate reader and the percentage inhibition of kinase activity calculated for each inhibitor tested. […]
For each entry below, report its IC50 value.

Previously resolved entries follow.
molecule | IC50
CN1CC(c2ccc(Nc3ncc4c(n3)N(c3cccc(N=S(C)(C)=O)n3)[C@H]3CC(C)(C)OC[C@@]43C)cc2)C1 (single isomer, unassigned) | 10 to 100 nM
CN(C)C(=O)c1ccc(Nc2ncc3c(n2)N(c2cccc(N=S(C)(C)=O)n2)[C@H]2CC(C)(C)OC[C@@]32C)cc1 (single isomer, unassigned) | 10 to 100 nM
Cc1cc(Nc2ncc3c(n2)N(c2cccc(N4C(=O)OC[C@@H]4C)n2)[C@@H]2CC(C)(C)OC[C@]32C)ccc1N1C[C@@H]2C[C@H]1CN2C (single isomer, unassigned) | < 10 nM

Now, please, on to the next molecule.
The molecule Cc1cc(Nc2ncc3c(n2)N(c2cccc(N=S(C)(C)=O)n2)[C@@H]2CC(C)(C)OC[C@]32C)ccc1C1CCN(C)CC1 (single isomer, unassigned) on Wee1 kinase domain (Homo sapiens, UniProt P30291): IC50 was < 10 nM

Entry source: patent US20260166039A1
